assaySystem: Regulator of G-protein signaling 7 (Homo sapiens)
assayProcedure: small molecules altering RGS7 interaction with Galphao – biochemical, multiplexed bead flow cytometry, SAR compounds, SAR follow-up (AID 2296)
setupConditions: bead-based flow cytometry, AF488-Galphao binding to RGS7; measured here: Ki from EC50 fit
measurementLabel: Ki (nM)

INSERT INTO results (molecule, resultunit, recordednumber) VALUES
  ('Cc1[nH]n(-c2ccccc2)c(=S)c1C=NCCCN=Cc1c(C)[nH]n(-c2ccccc2)c1=S', 'nM', 1870),
  ('COc1ccc(C2=CC(=O)C=CC2=O)cc1', 'nM', 300),
  ('CC1(C)OC(=O)C(=Cc2ccc(-c3ccc(S(N)(=O)=O)cc3)o2)C(=O)O1', 'nM', 1600),
  ('NS(=O)(=O)c1ccc(N/N=C/c2ccc(O)c(O)c2O)c([N+](=O)[O-])c1', 'nM', 120),
  ('CCC(=O)NC(c1ccc(C)cc1)c1cc([N+](=O)[O-])c2cccnc2c1O (configuration not stated)', 'nM', 3750);

[I] O=C1C(Cl)=C(N2CCCCC2)C(=O)C(Cl)=C1c1cnc(N2CCCCC2)s1
[II] CCN=c1scc(C)n1/N=C/c1ccc(O)c(O)c1O
Query: Looking at I and II , which one comes out lower in Ki terms? Write the label of whichever entry you select.
Response: I
(I: 130 nM, II: 380 nM)

* * *

assaySystem: Regulator of G-protein signaling 7 (Homo sapiens)
assayProcedure: small molecules altering RGS7 interaction with Galphao – biochemical, multiplexed bead flow cytometry, SAR compounds, SAR follow-up (AID 2296)
setupConditions: bead-based flow cytometry, AF488-Galphao binding to RGS7
measurementLabel: pEC50
Reminder that pEC50 is minus the log10 of a molar concentration.

According to the records, this compound `NS(=O)(=O)c1ccc(N/N=C/c2ccc(O)c(O)c2O)c([N+](=O)[O-])c1` displays pEC50 of 6.85

* * *

assaySystem: Regulator of G-protein signaling 7 (Homo sapiens)
assayProcedure: small molecules altering RGS7 interaction with Galphao – biochemical, multiplexed bead flow cytometry, SAR compounds, SAR follow-up (AID 2296)
setupConditions: bead-based flow cytometry, AF488-Galphao binding to RGS7; measured here: Ki from EC50 fit
measurementLabel: Ki (nM)

INSERT INTO measurements (compound, assaysystem, recordednumber) VALUES
  ('CCN(CC)S(=O)(=O)c1cccc(C(=O)N/N=C/c2ccc(O)c(O)c2O)c1', 'Regulator of G-protein signaling 7 (Homo sapiens)', 320);

[a] CN1CCN(C2=C(Cl)C(=O)C(c3cnc(N4CCCCC4)s3)=C(Cl)C2=O)CC1
[b] CN=c1scc(C)n1/N=C/c1ccc(O)c(O)c1O
[c] O=C(Cc1csc(N2CCOCC2)n1)N/N=C/c1ccc(O)c(O)c1O
[d] Nc1c(C(=O)NCC2CCCO2)sc2nc3c(c(-c4ccco4)c12)CC/C3=C/c1ccco1 (stereo not given)
Query: Descending sort on Ki required. Sort and list the labels as requested.
Response: c, b, d, a
